Documented EC50 Value (M), JKR9 reporter activation by peptide-loaded T2 cells across a set of binders
ASSAY SYSTEM: MAGE-A1 target antigen peptide … presented by HLA-A*02:01 on cells (human)
PROTOCOL: cell-based or functional assay
Give the value in M but do not write M after it.

Consider the worked cases shown below.
>  <BINDER>
ht27M1240 (TCR, V domains shown) Valpha: GEDVEQSLFLSVREGDSSVINCTYTDSSMTYLYWYKQEPGAGLQLLTYIFSNMDMKQDQRLTVLLNKKDKHLSLRIADTQTGDSAIYFCAGSGGGTDKLIFGTGTRLQVFP Vbeta: GAVVSQHPSWVICKSGTSVKIECRSLDFQATTMFWYRQFPKQSLMLMATSNEGSKATYEQGVEKDKFLINHASLTLSTLTVTSAHPEDSSFYICSAREPGQGPYEQYFGPGTRLTVT

>  <MEASUREMENT UNIT>
M

>  <READING>
1.1e-07

$$$$
>  <BINDER>
ht27M1418 (TCR, V domains shown) Valpha: GEDVEQSLFLSVREGDSSVINCTYTDSSSTYLYWYKQEPGAGLQLLTYGTWLMDMKQDQRLTVLLNKKDKHLSLRIADTQTGDSAIYFCAGSGGGTDKLIFGTGTRLQVFP Vbeta: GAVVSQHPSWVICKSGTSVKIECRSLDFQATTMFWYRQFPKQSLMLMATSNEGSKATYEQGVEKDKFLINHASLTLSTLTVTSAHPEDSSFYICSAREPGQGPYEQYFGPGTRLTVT

>  <MEASUREMENT UNIT>
M

>  <READING>
1.01e-08

$$$$

Prompt line: Need EC50 Value (M), JKR9 reporter activation by peptide-loaded T2 cells, item ht27M1245 (TCR, V domains shown) Valpha: GEDVEQSLFLSVREGDSSVINCTYTDSSQTYLYWYKQEPGAGLQLLTYIFSNMDMKQDQRLTVLLNKKDKHLSLRIADTQTGDSAIYFCAGSGGGTDKLIFGTGTRLQVFP Vbeta: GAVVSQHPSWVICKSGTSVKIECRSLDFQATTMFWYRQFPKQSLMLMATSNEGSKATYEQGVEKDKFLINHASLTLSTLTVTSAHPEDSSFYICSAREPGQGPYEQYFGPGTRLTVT
Response line: 5.54e-07

Prompt line: Need EC50 Value (M), JKR9 reporter activation by peptide-loaded T2 cells, item ht27M1387 (TCR, V domains shown) Valpha: GEDVEQSLFLSVREGDSSVINCTYTDSSSTYLYWYKQEPGAGLQLLTYIFSNMDMKQDQRLTVLLNKKDKHLSLRIADTQTGDSAIYFCAGSGGGTDKLIFGTGTRLQVFP Vbeta: GAVVSQHPSWVICKSGTSVKIECRSLDFPIERMFWYRQFPKQSLMLMATSNEGSKATYEQGVEKDKFLINHASLTLSTLTVTSAHPEDSSFYICSAREPGQGPYEQYFGPGTRLTVT
Response line: 1.28e-07

Prompt line: Need EC50 Value (M), JKR9 reporter activation by peptide-loaded T2 cells, item ht27M1374 (TCR, V domains shown) Valpha: GEDVEQSLFLSVREGDSSVINCTYTDSTDILLYWYKQEPGAGLQLLTYIFSNMDMKQDQRLTVLLNKKDKHLSLRIADTQTGDSAIYFCAGSGGGTDKLIFGTGTRLQVFP Vbeta: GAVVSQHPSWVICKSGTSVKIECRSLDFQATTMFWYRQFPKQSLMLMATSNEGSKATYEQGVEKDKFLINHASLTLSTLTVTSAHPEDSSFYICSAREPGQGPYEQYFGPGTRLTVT
Response line: 1.09e-07

Prompt line: Need EC50 Value (M), JKR9 reporter activation by peptide-loaded T2 cells, item ht27M1018 (TCR, V domains shown) Valpha: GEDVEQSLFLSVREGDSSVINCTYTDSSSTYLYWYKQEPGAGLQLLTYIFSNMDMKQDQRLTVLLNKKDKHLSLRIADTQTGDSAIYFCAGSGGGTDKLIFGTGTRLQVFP Vbeta: GAVVSQHPSWVICKSGTSVKIECRSLDFQATTMFWYRQFPKQSLMLMATSDYQTCVTYEQGVEKDKFLINHASLTLSTLTVTSAHPEDSSFYICSAREPGGGPFEQYFGPGTRLTVT
Response line: 6.36e-08

The values you see were collected from patent EP4534554A1.
